# Tested on: HeLa Kyoto
# Protocol summary: solubility change mitosis vs G1/S (difference of NP-40 vs SDS log2 ratios) (log2 ratio difference); higher = more soluble in mitosis
solubility change mitosis (log2): recorded values
Reply: number alone, nothing else.

Challenge: Requested read-out: solubility change mitosis (log2). Entry: MNGRVDYLVTEEEINLTRGPSGLGFNIVGGTDQQYVSNDSGIYVSRIKENGAAALDGRLQEGDKILSVNGQDLKNLLHQDAVDLFRNAGYAVSLRVQHRLQVQNGPIGHRGEGDPSGIPIFMVLVPVFALTMVAAWAFMRYRQQL [SYNJ2BP]
Response given: -0.0614

Challenge: Requested read-out: solubility change mitosis (log2). Entry: MAPQNLSTFCLLLLYLIGAVIAGRDFYKILGVPRSASIKDIKKAYRKLALQLHPDRNPDDPQAQEKFQDLGAAYEVLSDSEKRKQYDTYGEEGLKDGHQSSHGDIFSHFFGDFGFMFGGTPRQQDRNIPRGSDIIVDLEVTLEEVYAGNFVEVVRNKPVARQAPGKRKCNCRQEMRTTQLGPGRFQMTQEVVCDECPNVKLVNEERTLEVEIEPGVRDGMEYPFIGEGEPHVDGEPGDLRFRIKVVKHPIFERRGDDLYTNVTISLVESLVGFEMDITHLDGHKVHISRDKITRPGAKLWKKGEGLPNFDNNNIKGSLIITFDVDFPKEQLTEEAREGIKQLLKQGSVQKVYNGLQGY [DNAJB11]
Response given: -0.0195

Challenge: Requested read-out: solubility change mitosis (log2). Entry: MNPLTKVKLINELNEREVQLGVADKVSWHSEYKDSAWIFLGGLPYELTEGDIICVFSQYGEIVNINLVRDKKTGKSKGFCFLCYEDQRSTILAVDNFNGIKIKGRTIRVDHVSNYRAPKDSEEIDDVTRQLQEKGCGARTPSPSLSESSEDEKPTKKHKKDKKEKKKKKKEKEKADREVQAEQPSSSSPRRKTVKEKDDTGPKKHSSKNSERAQKSEPREGQKLPKSRTAYSGGAEDLERELKKEKPKHEHKSSSRREAREEKTRIRDRGRSSDAHSSWYNGRSEGRSYRSRSRSRDKSHRHKRARRSRERESSNPSDRWRH [RBMX2]
Response given: 0.59

* * *

# Test system: HeLa Kyoto
# Protocol summary: thermal stability score vs G1/S (z-score of summed log2 fold changes over temperatures); higher = more thermally stable than in G1/S
# Condition info: cell cycle stage: early G1 (4.5 h after nocodazole release)
Parameter measured: thermal stability score
Reply: number alone, nothing else.

MLLWPLRGWAARALRCFGPGSRGSPASGPGPRRVQRRAWPPDKEQEKEKKSVICVEGNIASGKTTCLEFFSNATDVEVLTEPVSKWRNVRGHNPLGLMYHDASRWGLTLQTYVQLTMLDRHTRPQVSSVRLMERSIHSARYIFVENLYRSGKMPEVDYVVLSEWFDWILRNMDVSVDLIVYLRTNPETCYQRLKKRCREEEKVIPLEYLEAIHHLHEEWLIKGSLFPMAAPVLVIEADHHMERMLELFEQNRDRILTPENRKHCP [TK2] ... -2.93
MGQNDLMGTAEDFADQFLRVTKQYLPHVARLCLISTFLEDGIRMWFQWSEQRDYIDTTWNCGYLLASSFVFLNLLGQLTGCVLVLSRNFVQYACFGLFGIIALQTIAYSILWDLKFLMRNLALGGGLLLLLAESRSEGKSMFAGVPTMRESSPKQYMQLGGRVLLVLMFMTLLHFDASFFSIVQNIVGTALMILVAIGFKTKLAALTLVVWLFAINVYFNAFWTIPVYKPMHDFLKYDFFQTMSVIGGLLLVVALGPGGVSMDEKKKEW [SURF4] ... -0.529
MSSNECFKCGRSGHWARECPTGGGRGRGMRSRGRGGFTSDRGFQFVSSSLPDICYRCGESGHLAKDCDLQEDACYNCGRGGHIAKDCKEPKREREQCCYNCGKPGHLARDCDHADEQKCYSCGEFGHIQKDCTKVKCYRCGETGHVAINCSKTSEVNCYRCGESGHLARECTIEATA [CNBP] ... -1.16
MSASVVSVISRFLEEYLSSTPQRLKLLDAYLLYILLTGALQFGYCLLVGTFPFNSFLSGFISCVGSFILAVCLRIQINPQNKADFQGISPERAFADFLFASTILHLVVMNFVG [DAD1] ... 0.505
MDLLQFLAFLFVLLLSGMGATGTLRTSLDPSLEIYKKMFEVKRREQLLALKNLAQLNDIHQQYKILDVMLKGLFKVLEDSRTVLTAADVLPDGPFPQDEKLKDAFSHVVENTAFFGDVVLRFPRIVHYYFDHNSNWNLLIRWGISFCNQTGVFNQGPHSPILSLMAQELGISEKDSNFQNPFKIDRTEFIPSTDPFQKALREEEKRRKKEEKRKEIRKGPRISRSQSEL [CCDC134] ... 1.83
MEGGGGSGNKTTGGLAGFFGAGGAGYSHADLAGVPLTGMNPLSPYLNVDPRYLVQDTDEFILPTGANKTRGRFELAFFTIGGCCMTGAAFGAMNGLRLGLKETQNMAWSKPRNVQILNMVTRQGALWANTLGSLALLYSAFGVIIEKTRGAEDDLNTVAAGTMTGMLYKCTGGLRGIARGGLTGLTLTSLYALYNNWEHMKGSLLQQSL [TIMM23] ... -1.18

// next item, thermal stability score requested
Challenge: Requested read-out: thermal stability score. Entry: MAAAMVPGRSESWERGEPGRPALYFCGSIRGGREDRTLYERIVSRLRRFGTVLTEHVAAAELGARGEEAAGGDRLIHEQDLEWLQQADVVVAEVTQPSLGVGYELGRAVAFNKRILCLFRPQSGRVLSAMIRGAADGSRFQVWDYEEGEVEALLDRYFEADPPGQVAASPDPTT [DNPH1]
Response given: -1.99

* * *

# Test system: HeLa Kyoto
# Protocol summary: thermal stability score vs G1/S (z-score of summed log2 fold changes over temperatures); higher = more thermally stable than in G1/S
# Condition info: cell cycle stage: mitosis
thermal stability score: recorded values
Reply: number alone, nothing else.

MALLFARSLRLCRWGAKRLGVASTEAQRGVSFKLEEKTAHSSLALFRDDTGVKYGLVGLEPTKVALNVERFREWAVVLADTAVTSGRHYWEVTVKRSQQFRIGVADVDMSRDSCIGVDDRSWVFTYAQRKWYTMLANEKAPVEGIGQPEKVGLLLEYEAQKLSLVDVSQVSVVHTLQTDFRGPVVPAFALWDGELLTHSGLEVPEGL [SPRYD4] ... -3.25

// next item, thermal stability score requested
Challenge: Report thermal stability score for MAVTGWLESLRTAQKTALLQDGRRKVHYLFPDGKEMAEEYDEKTSELLVRKWRVKSALGAMGQWQLEVGDPAPLGAGNLGPELIKESNANPIFMRKDTKMSFQWRIRNLPYPKDVYSVSVDQKERCIIVRTTNKKYYKKFSIPDLDRHQLPLDDALLSFAHANCTLIISYQKPKEVVVAESELQKELKKVKTAHSNDGDCKTQ [DPCD] tested on HeLa Kyoto.
Response given: 0.716

* * *

melting temperature: recorded values
# Tested on: HeLa Kyoto
# Protocol summary: melting temperature (median over replicates), in situ; higher = more thermally stable
# Condition info: cell cycle stage: mitosis
Supply the numeric figure in °C, leaving out any unit text.

MAAERGAGQQQSQEMMEVDRRVESEESGDEEGKKHSSGIVADLSEQSLKDGEERGEEDPEEEHELPVDMETINLDRDAEDVDLNHYRIGKIEGFEVLKKVKTLCLRQNLIKCIENLEELQSLRELDLYDNQIKKIENLEALTELEILDISFNLLRNIEGVDKLTRLKKLFLVNNKISKIENLSNLHQLQMLELGSNRIRAIENIDTLTNLESLFLGKNKITKLQNLDALTNLTVLSMQSNRLTKIEGLQNLVNLRELYLSHNGIEVIEGLENNNKLTMLDIASNRIKKIENISHLTELQEFWMNDNLLESWSDLDELKGARSLETVYLERNPLQKDPQYRRKVMLALPSVRQIDATFVRF [PPP1R7] ... 52.8

Challenge: Requested read-out: melting temperature. Entry: MDVLAEANGTFALNLLKTLGKDNSKNVFFSPMSMSCALAMVYMGAKGNTAAQMAQILSFNKSGGGGDIHQGFQSLLTEVNKTGTQYLLRMANRLFGEKSCDFLSSFRDSCQKFYQAEMEELDFISAVEKSRKHINTWVAEKTEGKIAELLSPGSVDPLTRLVLVNAVYFRGNWDEQFDKENTEERLFKVSKNEEKPVQMMFKQSTFKKTYIGEIFTQILVLPYVGKELNMIIMLPDETTDLRTVEKELTYEKFVEWTRLDMMDEEEVEVSLPRFKLEESYDMESVLRNLGMTDAFELGKADFSGMSQTDLSLSKVVHKSFVEVNEEGTEAAAATAAIMMMRCARFVPRFCADHPFLFFIQHSKTNGILFCGRFSSP [SERPINB6]
Response given: 56.1
